The measured values listed here are drawn from patent US6143492A.

Target System: CYP 2D6 (Homo sapiens)
Sequence (P10635 whole entry): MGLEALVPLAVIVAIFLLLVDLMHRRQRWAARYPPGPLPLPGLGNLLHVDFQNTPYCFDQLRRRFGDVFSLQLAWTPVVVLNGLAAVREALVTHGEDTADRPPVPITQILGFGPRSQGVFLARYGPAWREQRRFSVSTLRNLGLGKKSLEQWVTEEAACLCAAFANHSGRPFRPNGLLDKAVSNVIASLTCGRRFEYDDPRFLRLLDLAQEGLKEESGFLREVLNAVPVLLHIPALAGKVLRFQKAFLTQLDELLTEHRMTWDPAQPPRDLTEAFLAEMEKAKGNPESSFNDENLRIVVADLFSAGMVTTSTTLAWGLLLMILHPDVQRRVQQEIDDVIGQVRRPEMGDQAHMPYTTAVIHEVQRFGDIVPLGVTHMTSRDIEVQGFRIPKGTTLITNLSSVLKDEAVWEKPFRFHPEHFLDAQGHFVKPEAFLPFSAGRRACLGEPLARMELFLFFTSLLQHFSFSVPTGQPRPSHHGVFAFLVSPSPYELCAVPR
Experiment Notes: Kinetics of fluorogenic substrates with CYP 2D6
Type: biochemical
Study Conditions: CYP 2D6, substrate 1.25 uM
Observable: v (1.25 uM), turnover rate at 1.25 μM (min⁻¹)
Give just the number in min⁻¹; leave the unit off.

Consider the worked cases shown below.
> print(dat)
                                   compound  recorded.result
1      CC(C)Oc1ccc2cc(C#N)c(=O)oc2c1 [IPCC]           0.0076
2  COc1ccc(COc2ccc3c(C(F)(F)F)cc(=O)oc3c2)cc1 [MOBFC]             0.09
3      COCOc1ccc2nc3ccc(=O)cc-3oc2c1 [MOMR]          0.03396

[in] v (1.25 uM), turnover rate at 1.25 μM for COc1ccc2c(C(F)(F)F)cc(=O)oc2c1 [MFC, 7-Methoxy-4-trifluoromethylcoumarin, reference compound] ?
[out] 0.03

----------
Target System: CYP 2C9 (Homo sapiens, UniProt P11712)
Sequence (P11712 whole entry): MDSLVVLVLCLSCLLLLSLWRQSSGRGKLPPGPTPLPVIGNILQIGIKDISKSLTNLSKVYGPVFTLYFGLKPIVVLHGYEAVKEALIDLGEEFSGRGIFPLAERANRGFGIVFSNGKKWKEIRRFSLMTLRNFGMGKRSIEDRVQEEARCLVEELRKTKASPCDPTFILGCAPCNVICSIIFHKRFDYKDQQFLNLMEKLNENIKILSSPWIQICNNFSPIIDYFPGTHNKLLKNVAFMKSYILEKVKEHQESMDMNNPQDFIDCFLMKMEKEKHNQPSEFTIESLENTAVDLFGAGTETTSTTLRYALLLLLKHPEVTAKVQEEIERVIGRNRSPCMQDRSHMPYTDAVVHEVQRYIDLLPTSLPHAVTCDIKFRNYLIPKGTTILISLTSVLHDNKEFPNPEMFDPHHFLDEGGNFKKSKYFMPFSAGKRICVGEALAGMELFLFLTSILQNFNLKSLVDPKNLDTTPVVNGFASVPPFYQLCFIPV
Experiment Notes: Kinetics of fluorogenic substrates with CYP 2C9
Type: biochemical
Study Conditions: CYP 2C9
So basically: kcat/Km at 600 s⁻¹ M⁻¹ or higher? That is label 1. Lower than 600 s⁻¹ M⁻¹? That is label 0.

> print(dat)
                                   molecule                           target.system  class.label
1  COc1ccc(COc2ccc3c(C(F)(F)F)cc(=O)oc3c2)cc1 [MOBFC]  CYP 2C9 (Homo sapiens, UniProt P11712)      label 1
2       COCOc1ccc2cc(C#N)c(=O)oc2c1 [MOMCC]  CYP 2C9 (Homo sapiens, UniProt P11712)      label 0
3  CCCCCCCCOCOc1ccc2nc3ccc(=O)cc-3oc2c1 [OOMR, Octyloxymethylresorufin]  CYP 2C9 (Homo sapiens, UniProt P11712)      label 1
4  COc1ccc2cc(C#N)c(=O)oc2c1 [3CMC, 3-cyano-7-methoxycoumarin, reference compound]  CYP 2C9 (Homo sapiens, UniProt P11712)      label 0

[in] Check this molecule for kcat/Km at or above 600 s⁻¹ M⁻¹: COc1ccc(COc2ccc3nc4ccc(=O)cc-4oc3c2)cc1 [MOBR, Paramethoxybenzylresorufin]
[out] label 1

----------
Target System: UniProt:P33261
Sequence (P33261 whole entry): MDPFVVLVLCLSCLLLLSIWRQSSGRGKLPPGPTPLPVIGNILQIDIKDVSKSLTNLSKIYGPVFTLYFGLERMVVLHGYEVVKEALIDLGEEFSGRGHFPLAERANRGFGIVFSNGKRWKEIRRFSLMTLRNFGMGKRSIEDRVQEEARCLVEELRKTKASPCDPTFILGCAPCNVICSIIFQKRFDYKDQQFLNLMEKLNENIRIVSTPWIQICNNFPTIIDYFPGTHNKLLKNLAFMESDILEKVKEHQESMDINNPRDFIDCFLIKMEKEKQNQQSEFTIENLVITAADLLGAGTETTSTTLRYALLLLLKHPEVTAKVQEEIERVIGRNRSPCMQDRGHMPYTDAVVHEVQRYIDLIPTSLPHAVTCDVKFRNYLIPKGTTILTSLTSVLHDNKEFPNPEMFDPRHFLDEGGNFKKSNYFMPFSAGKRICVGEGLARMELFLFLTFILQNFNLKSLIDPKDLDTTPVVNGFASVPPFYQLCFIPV
Experiment Notes: Kinetics of fluorogenic substrates with CYP 2C19
Assay type: biochemical
Study Conditions: CYP 2C19
kcat overview
Please give a number only; it is taken to be in min⁻¹.

> print(dat)
                   compound.structure  observable  readout.units  recorded.result
1         COCOc1ccc2cc(C#N)c(=O)oc2c1        kcat          min⁻¹              0.5
2  CCCCCCCCOCOc1ccc2cc(C#N)c(=O)oc2c1        kcat          min⁻¹              1.7
3   N#Cc1cc2ccc(OCOCc3ccccc3)cc2oc1=O        kcat          min⁻¹              1.9
4       CC(C)Oc1ccc2cc(C#N)c(=O)oc2c1        kcat          min⁻¹             1.95

Below: the item to evaluate.
[in] Tell me the measured kcat of "CCOCOc1ccc2cc(C#N)c(=O)oc2c1" , please.
[out] 5.7
